assay info: Metabolic stability assessed as 3-((4-(2-hydroxyquinoxalin- 6-yl)-5-(6-methylpyridin-2-yl)-1H-imidazol-2-yl)methyl)benzamide or 3-((4-(3-hydroxyquinoxalin-6-yl)-5-(6-methylpyridin-2-yl)- 1H-imidazol-2-yl)methyl)benzamide) levels at 120 uM by HPLC analysis in presence human recombinant CYP2C8
Format: ADME
settings: recombinant enzyme
observed property: Stability (peak area)
Give bare numbers, in peak area.

## Task Look up Stability: Cc1cccc(-c2[nH]c(Cc3cccc(C(N)=O)c3)nc2-c2ccc3nccnc3c2)n1
## Result 33.4

---

assay info: Metabolic stability assessed as 3-((4-(2-hydroxyquinoxalin- 6-yl)-5-(6-methylpyridin-2-yl)-1H-imidazol-2-yl)methyl)benzamide or 3-((4-(3-hydroxyquinoxalin-6-yl)-5-(6-methylpyridin-2-yl)- 1H-imidazol-2-yl)methyl)benzamide) levels at 120 uM by HPLC analysis in presence human recombinant CYP2D6
Type: ADME
settings: recombinant enzyme
observed property: Stability (peak area)
One number for each entry, in peak area.

## Task Look up Stability: Cc1cccc(-c2[nH]c(Cc3cccc(C(N)=O)c3)nc2-c2ccc3nccnc3c2)n1
## Result 15.4

---

assay info: Metabolic stability assessed as 3-((4-(2-hydroxyquinolin-6-yl)-5-(6-methylpyridin-2-yl)-1H-imidazol-2-yl)methyl)benzamide or 3-((4-(3-hydroxyquinolin-6-yl)-5-(6-methylpyridin-2-yl)-1H-imidazol-2-yl)methyl)benzamide levels at 120 uM by HPLC analysis in presence human recombinant CYP2C19
Format: ADME
settings: recombinant enzyme
observed property: Stability (peak area)
Give bare numbers, in peak area.

## Task Look up Stability: Cc1cccc(-c2nc(Cc3cccc(C(N)=O)c3)[nH]c2-c2ccc3ncccc3c2)n1
## Result 11.3

---

assay info: Metabolic stability assessed as 3-((4-(2-hydroxyquinoxalin- 6-yl)-5-(6-methylpyridin-2-yl)-1H-imidazol-2-yl)methyl)benzamide or 3-((4-(3-hydroxyquinoxalin-6-yl)-5-(6-methylpyridin-2-yl)- 1H-imidazol-2-yl)methyl)benzamide) levels at 120 uM by HPLC analysis in presence human recombinant CYP3A4
Type: ADME
settings: recombinant enzyme
observed property: Stability (peak area)
Give bare numbers, in peak area.

## Task Look up Stability: Cc1cccc(-c2[nH]c(Cc3cccc(C(N)=O)c3)nc2-c2ccc3nccnc3c2)n1
## Result 17

---

assay info: Metabolic stability assessed as 3-((4-(2-hydroxyquinoxalin- 6-yl)-5-(6-methylpyridin-2-yl)-1H-imidazol-2-yl)methyl)benzamide or 3-((4-(3-hydroxyquinoxalin-6-yl)-5-(6-methylpyridin-2-yl)- 1H-imidazol-2-yl)methyl)benzamide) levels at 120 uM by HPLC analysis in presence human recombinant CYP2C19
Format: ADME
settings: recombinant enzyme
observed property: Stability (peak area)
One number for each entry, in peak area.

## Task Look up Stability: Cc1cccc(-c2[nH]c(Cc3cccc(C(N)=O)c3)nc2-c2ccc3nccnc3c2)n1
## Result 12.4

---

assay info: Metabolic stability assessed as 3-((4-(2-hydroxyquinolin-6-yl)-5-(6-methylpyridin-2-yl)-1H-imidazol-2-yl)methyl)benzamide or 3-((4-(3-hydroxyquinolin-6-yl)-5-(6-methylpyridin-2-yl)-1H-imidazol-2-yl)methyl)benzamide levels at 120 uM by HPLC analysis in presence human recombinant CYP2C8
Format: ADME
settings: recombinant enzyme
observed property: Stability (peak area)
Answers are plain numbers, in peak area.

## Task Look up Stability: Cc1cccc(-c2nc(Cc3cccc(C(N)=O)c3)[nH]c2-c2ccc3ncccc3c2)n1
## Result 1.99

---

tested target: Mitogen-activated protein kinase 14 (Homo sapiens)
Sequence (Q16539 whole entry): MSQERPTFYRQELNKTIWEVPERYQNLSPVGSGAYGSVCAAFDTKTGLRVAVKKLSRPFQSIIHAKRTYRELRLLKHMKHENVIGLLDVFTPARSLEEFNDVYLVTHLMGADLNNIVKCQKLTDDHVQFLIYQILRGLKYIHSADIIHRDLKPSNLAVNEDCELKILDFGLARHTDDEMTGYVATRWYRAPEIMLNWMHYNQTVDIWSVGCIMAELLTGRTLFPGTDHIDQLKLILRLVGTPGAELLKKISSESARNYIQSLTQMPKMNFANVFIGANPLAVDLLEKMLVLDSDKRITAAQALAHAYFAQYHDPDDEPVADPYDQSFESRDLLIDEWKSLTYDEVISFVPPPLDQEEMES
observed property: IC50

## Task Look up IC50: Cc1cccc(-c2nc(Cc3cccc(C(N)=O)c3)[nH]c2-c2ccc3ncccc3c2)n1
## Result 0.54 µM

---

tested target: TGF-beta receptor type-1 (Homo sapiens, UniProt P36897)
Sequence (P36897 whole entry): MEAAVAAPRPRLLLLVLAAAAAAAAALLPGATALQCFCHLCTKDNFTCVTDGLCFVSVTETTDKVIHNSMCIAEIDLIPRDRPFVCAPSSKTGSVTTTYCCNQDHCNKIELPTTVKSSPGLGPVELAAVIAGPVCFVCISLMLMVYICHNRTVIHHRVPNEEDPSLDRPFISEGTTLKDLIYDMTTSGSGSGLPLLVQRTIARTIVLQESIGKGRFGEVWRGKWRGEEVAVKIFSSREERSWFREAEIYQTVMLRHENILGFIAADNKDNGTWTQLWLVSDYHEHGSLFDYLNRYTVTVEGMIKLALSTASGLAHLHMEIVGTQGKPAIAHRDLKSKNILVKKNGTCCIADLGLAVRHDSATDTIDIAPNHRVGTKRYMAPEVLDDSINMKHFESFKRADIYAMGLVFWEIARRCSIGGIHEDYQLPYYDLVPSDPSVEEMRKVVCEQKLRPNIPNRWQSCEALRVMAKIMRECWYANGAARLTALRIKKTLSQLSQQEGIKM
observed property: IC50 (nM)
Answers are plain numbers, in nM.

## Task Look up IC50: Cc1cccc(-c2nc(Cc3cccc(C(N)=O)c3)[nH]c2-c2ccc3ncccc3c2)n1
## Result 34

---

tested target: Vascular endothelial growth factor receptor 1 (Homo sapiens, UniProt P17948)
Sequence (P17948 whole entry): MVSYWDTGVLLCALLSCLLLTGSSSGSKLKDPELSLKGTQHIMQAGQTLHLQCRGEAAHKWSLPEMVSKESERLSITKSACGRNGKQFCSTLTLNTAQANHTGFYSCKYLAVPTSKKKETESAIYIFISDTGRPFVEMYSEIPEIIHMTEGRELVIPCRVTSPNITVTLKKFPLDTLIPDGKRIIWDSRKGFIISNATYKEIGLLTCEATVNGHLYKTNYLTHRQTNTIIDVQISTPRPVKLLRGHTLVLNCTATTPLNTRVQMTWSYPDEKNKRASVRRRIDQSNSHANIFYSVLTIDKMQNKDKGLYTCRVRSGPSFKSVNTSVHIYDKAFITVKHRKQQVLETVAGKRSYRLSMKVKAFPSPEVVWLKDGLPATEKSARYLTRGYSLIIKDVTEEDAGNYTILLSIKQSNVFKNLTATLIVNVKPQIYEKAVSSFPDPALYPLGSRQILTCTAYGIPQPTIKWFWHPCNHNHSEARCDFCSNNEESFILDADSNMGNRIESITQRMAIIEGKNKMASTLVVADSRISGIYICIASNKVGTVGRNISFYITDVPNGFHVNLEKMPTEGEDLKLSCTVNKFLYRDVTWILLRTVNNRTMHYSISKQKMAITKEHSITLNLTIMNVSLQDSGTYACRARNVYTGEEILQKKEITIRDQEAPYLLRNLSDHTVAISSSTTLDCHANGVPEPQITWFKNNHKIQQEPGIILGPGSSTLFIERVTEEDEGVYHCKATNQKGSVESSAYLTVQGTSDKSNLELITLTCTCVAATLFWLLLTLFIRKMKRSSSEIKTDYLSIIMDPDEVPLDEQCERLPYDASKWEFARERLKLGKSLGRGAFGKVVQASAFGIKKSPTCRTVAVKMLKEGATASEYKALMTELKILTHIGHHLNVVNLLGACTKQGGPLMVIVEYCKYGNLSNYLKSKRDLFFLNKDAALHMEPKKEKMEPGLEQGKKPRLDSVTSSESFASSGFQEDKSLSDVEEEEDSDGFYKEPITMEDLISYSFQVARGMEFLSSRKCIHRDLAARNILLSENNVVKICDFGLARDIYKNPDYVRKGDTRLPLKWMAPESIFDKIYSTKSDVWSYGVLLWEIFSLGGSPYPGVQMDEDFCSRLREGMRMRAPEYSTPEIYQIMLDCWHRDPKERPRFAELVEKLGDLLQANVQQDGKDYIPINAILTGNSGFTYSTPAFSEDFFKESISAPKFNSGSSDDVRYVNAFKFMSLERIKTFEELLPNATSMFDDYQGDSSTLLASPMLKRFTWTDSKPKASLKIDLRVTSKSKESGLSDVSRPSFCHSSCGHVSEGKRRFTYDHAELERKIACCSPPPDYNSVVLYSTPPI
observed property: IC50 (µM)
Numbers only, in µM.

## Task Look up IC50: Cc1cccc(-c2nc(Cc3cccc(C(N)=O)c3)[nH]c2-c2ccc3ncccc3c2)n1
## Result 2.1

---

assay info: Aqueous solubility in buffer solution at pH 1.2
Assay type: physicochemical
observed property: solubility (mg/mL)
Answers are plain numbers, in mg/mL.

[
  {
    "smiles str": "Cc1cccc(-c2nc(Cc3cccc(C(N)=O)c3)[nH]c2-c2ccc3ncccc3c2)n1",
    "solubility (mg/mL)": 14.3
  }
]

Query compound follows.
## Task Look up solubility: Cc1cccc(-c2[nH]c(Cc3cccc(C#N)c3)nc2-c2ccc3ncccc3c2)n1
## Result 7.1

---

tested target: Platelet-derived growth factor receptor alpha (Homo sapiens)
Sequence (P16234 whole entry): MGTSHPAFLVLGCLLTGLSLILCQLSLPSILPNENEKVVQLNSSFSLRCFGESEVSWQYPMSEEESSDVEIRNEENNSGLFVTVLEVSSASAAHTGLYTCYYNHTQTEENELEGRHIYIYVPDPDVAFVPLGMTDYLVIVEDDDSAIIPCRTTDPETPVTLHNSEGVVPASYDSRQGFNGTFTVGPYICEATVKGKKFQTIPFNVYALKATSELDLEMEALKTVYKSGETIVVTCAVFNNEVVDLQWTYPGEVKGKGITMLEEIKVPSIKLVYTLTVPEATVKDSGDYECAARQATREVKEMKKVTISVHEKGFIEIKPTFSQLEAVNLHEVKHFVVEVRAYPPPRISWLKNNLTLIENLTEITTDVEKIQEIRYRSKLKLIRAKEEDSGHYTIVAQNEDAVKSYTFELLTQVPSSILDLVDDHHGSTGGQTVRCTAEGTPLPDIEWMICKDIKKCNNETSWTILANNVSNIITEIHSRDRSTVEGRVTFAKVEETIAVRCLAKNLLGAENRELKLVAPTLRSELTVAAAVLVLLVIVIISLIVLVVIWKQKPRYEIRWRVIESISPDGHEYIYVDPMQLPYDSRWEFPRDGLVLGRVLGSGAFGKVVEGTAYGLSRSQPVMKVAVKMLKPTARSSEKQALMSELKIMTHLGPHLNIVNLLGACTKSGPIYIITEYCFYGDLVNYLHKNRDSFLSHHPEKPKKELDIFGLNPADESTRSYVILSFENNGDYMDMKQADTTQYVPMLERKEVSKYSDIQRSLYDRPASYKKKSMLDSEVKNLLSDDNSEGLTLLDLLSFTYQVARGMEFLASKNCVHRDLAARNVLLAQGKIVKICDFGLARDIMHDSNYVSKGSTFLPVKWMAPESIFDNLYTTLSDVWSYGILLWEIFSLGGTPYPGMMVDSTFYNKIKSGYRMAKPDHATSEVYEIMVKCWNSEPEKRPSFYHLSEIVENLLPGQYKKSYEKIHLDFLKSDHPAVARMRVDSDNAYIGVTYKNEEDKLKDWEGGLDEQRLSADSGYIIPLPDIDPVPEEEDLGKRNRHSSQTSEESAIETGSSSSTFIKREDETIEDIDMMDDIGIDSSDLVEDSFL
assay info: Inhibition of PDGFRalpha
observed property: pIC50
One number for each entry, as −log10 of the molar value.

## Task Look up pIC50: Cc1cccc(-c2nc(Cc3cccc(C(N)=O)c3)[nH]c2-c2ccc3ncccc3c2)n1
## Result 5.52
